# EXPERIMENTAL_SYSTEM: DNA topoisomerase 2-alpha (Homo sapiens, UniProt P11388)
# Sequence (P11388 whole entry): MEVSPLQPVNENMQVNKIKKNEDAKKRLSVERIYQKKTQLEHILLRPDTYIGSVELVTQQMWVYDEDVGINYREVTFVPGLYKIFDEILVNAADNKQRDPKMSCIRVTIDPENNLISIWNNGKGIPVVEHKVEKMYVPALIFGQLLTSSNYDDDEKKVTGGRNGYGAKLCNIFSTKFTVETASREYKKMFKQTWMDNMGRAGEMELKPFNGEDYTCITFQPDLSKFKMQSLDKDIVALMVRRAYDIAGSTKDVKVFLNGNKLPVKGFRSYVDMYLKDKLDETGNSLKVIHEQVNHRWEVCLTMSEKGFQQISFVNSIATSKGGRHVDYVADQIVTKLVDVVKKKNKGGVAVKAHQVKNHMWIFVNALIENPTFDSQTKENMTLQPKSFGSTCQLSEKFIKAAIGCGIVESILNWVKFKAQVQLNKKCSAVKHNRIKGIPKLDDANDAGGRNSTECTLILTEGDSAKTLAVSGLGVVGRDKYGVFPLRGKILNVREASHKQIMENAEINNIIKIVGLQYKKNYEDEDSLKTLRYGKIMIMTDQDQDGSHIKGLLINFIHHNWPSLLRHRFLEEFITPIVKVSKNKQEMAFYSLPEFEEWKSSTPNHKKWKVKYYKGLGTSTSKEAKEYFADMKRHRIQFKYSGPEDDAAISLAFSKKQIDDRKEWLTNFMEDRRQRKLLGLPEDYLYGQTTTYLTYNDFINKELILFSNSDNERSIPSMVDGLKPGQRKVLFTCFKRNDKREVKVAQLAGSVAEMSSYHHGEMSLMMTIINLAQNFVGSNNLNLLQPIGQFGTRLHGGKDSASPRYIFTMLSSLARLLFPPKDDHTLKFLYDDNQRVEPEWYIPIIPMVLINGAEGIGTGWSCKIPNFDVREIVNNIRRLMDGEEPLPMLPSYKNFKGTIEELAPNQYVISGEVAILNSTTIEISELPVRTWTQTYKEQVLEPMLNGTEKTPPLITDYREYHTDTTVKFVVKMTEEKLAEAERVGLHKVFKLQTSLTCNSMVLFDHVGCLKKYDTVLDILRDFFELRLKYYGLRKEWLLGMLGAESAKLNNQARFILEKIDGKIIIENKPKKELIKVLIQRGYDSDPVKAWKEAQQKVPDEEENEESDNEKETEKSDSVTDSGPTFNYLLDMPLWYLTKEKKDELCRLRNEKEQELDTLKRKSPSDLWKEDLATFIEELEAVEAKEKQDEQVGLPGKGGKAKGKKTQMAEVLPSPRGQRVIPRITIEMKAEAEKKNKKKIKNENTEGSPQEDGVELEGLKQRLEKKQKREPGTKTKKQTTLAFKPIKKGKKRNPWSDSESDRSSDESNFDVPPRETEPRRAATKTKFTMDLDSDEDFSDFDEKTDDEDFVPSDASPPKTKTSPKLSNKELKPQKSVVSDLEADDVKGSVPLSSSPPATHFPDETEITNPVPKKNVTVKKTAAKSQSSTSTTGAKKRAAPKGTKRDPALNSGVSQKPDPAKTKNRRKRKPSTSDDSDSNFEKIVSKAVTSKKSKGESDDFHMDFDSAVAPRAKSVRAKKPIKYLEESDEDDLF
READOUT_NAME: IC50 (µM)
A number alone suffices; assume µM.

Qu. Endpoint output: IC50 of NCCc1c(C(c2[nH]c3cc(Br)ccc3c2CCNC(=O)C(F)(F)F)c2c[nH]c3ccccc23)[nH]c2cc(Br)ccc12 (stereo unspecified) . Value?
Ans. 13

====

# PROCEDURE_TEXT: Inhibition of topoisomerase by kinetoplast DNA decatenation assay
Measured IC50 by item
// return numeric value only (unit: µM, not printed)

Qu. Entry NCCc1c(C(c2[nH]c3cc(Br)ccc3c2CCNC(=O)C(F)(F)F)c2c[nH]c3ccccc23)[nH]c2cc(Br)ccc12 (configuration not stated) has what IC50?
Ans. 20

---
Qu. IC50 for NCCc1c(C(c2[nH]c3cc(Br)ccc3c2CCNC(=O)C(F)(F)F)c2cn(S(=O)(=O)c3ccccc3)c3ccccc23)[nH]c2cc(Br)ccc12 (configuration not stated) ?
Ans. 20

====

# Tested on: CCRF-CEM
# PROCEDURE_TEXT: Cytotoxicity against human CEM cells
# Assay type: functional, cell-based
READOUT_NAME: IC50

Qu. // IC50 lookup, key: NCCc1c(C(c2[nH]c3cc(Br)ccc3c2CCNC(=O)C(F)(F)F)c2c[nH]c3ccccc23)[nH]c2cc(Br)ccc12 (stereo unspecified)
Ans. 5.5 µM

====

# Test system: SK-OV-3
# PROCEDURE_TEXT: Cytotoxicity against human SKOV3 cells after 72 hrs
# Assay type: functional, cell-based
# CONDITION_SET: SK-OV-3, 72 h
READOUT_NAME: pIC50
FYI, pIC50 means -log10 of a concentration in mol per litre.

Qu. Which pIC50 reading was recorded for the compound NCCc1c(C(c2[nH]c3cc(Br)ccc3c2CCNC(=O)C(F)(F)F)c2cn(S(=O)(=O)c3ccccc3)c3ccccc23)[nH]c2cc(Br)ccc12 (stereo not drawn) ?
Ans. 5.19

Query compound follows.
Qu. Suppose we examine the compound NCCc1c(C(c2[nH]c3cc(Br)ccc3c2CCNC(=O)C(F)(F)F)c2c[nH]c3ccccc23)[nH]c2cc(Br)ccc12 (stereo not drawn) ; what pIC50 value has been reported?
Ans. 5.19
